Decide by logP: equal to or exceeding 2 means condition met, less means condition not met.

Compound	Label value
S=C=NC(c1ccccc1)(c1ccccc1)c1ccccc1	condition met
CCCC(=O)O[C@]1(C(=O)CCl)[C@@H](C)C[C@H]2[C@@H]3CCC4=CC(=O)C=C[C@]4(C)[C@@]3(F)C(=O)C[C@@]21C	condition met
CN(C)C(N(C)C)=S(I)c1ccc(C(=O)O)cc1 (configuration not stated)	condition not met
COP(=S)(OC)Oc1ccc(Sc2ccc(OP(=S)(OC)OC)cc2)cc1	condition met
NC(=O)c1ccc(F)cc1	condition not met
CCNc1nc(Cl)nc(N(CC)CC)n1	condition met
O=C1CN=C(c2ccc(F)cc2)c2cc(Cl)ccc2N1	condition met
CC(C)N(C(=O)CCl)c1ccccc1	condition met
CC1N=C(c2ccccc2)c2cc(Cl)ccc2NC1=O (configuration not stated)	condition met
O=C(O)Cc1cccc([N+](=O)[O-])c1	condition not met
CCOC(=O)C(=Cc1ccc(OC)cc1)C(C)=O	condition met

* * *

logP overview

Compound	logP
CC(=O)CC(C)=O	0.4
c1ccc2c(c1)-c1cccc3cccc-2c13	5.16
CCOC(=O)c1cccc([N+](=O)[O-])c1	2.35
NC(=O)c1cccc(Br)c1	1.65
c1ccc(COc2cccc3cccnc23)cc1	3.51
NS(=O)(=O)c1ccccc1	0.31
C=C1C(=O)OC2CC(C)C3C=CC(=O)C3(C)C(OC(=O)CC(=O)OC3C4C(=C)C(=O)OC4CC(C)C4C=CC(=O)C43C)C12 (stereo not drawn)	1.33
C=CC1(C)OC(=O)N(c2cc(Cl)cc(Cl)c2)C1=O (stereo not drawn)	3.1
Cc1cc(Cl)cc(Cl)c1NC1=NCCN1	2.38
Cc1cnnc2cc(Cl)ccc12	1.98
O=C(O)c1c[nH]c2ccccc12	1.99
O=C(O)c1cc(Cl)ccc1O	3.09
O=C(Cc1ccccc1)NC(CO)C(O)c1ccc([N+](=O)[O-])cc1 (stereo not drawn)	1.52

* * *

logP values by entry
Measure name: logP

Compound	Measure name	Result
Cc1cc(C)nc(C)c1	logP	1.88
O=C(/C=C/c1ccccc1)c1ccccc1	logP	3.08
CC(C)C(Cl)C(=O)NC(N)=O (stereo unspecified)	logP	1
N[C@@H](CS)C(=O)O	logP	-2.49
CCOCCCl	logP	0.98
CC(C)(C)c1cccc(OCC(=O)O)c1	logP	2.96
Cc1cc(C#N)ccn1	logP	0.81
CC(=O)OC1C(=O)C2(C)C(O)CC3OCC3(OC(C)=O)C2C(OC(=O)c2ccccc2)C(C)(O)C2(C)CC(OC(=O)C(C)O)C(C)=C12 (stereo unspecified)	logP	1.52
CC1CC2OC(=O)C3(C)C2C(OC3(C)O)C2(C)C(=O)C=CC12 (stereo unspecified)	logP	0.3
O=S(=O)(CF)Nc1ccccc1	logP	1.35
CCCC(C)(COC(N)=O)COC(N)=O	logP	0.7
Oc1ccc(Oc2ccccc2)cc1	logP	3.35
O=c1[nH]c2ccccc2n1C1CCN(CCCC(c2ccc(F)cc2)c2ccc(F)cc2)CC1	logP	6.3
O=C(c1ccccc1)c1ccccn1	logP	1.88
NC(=O)NNC(=O)c1ccccc1	logP	-0.5
Cc1ccc(OC(=O)c2ccc(N)cc2O)cc1	logP	3.38
CC(C)(C)NC[C@H](O)COc1ccccc1C1CCCC1	logP	4.15
CNC(=O)Oc1ccc(Cl)c(C)c1	logP	2.57
O=[N+]([O-])c1cccs1	logP	1.55
CC12CCC(=O)C=C1CCC1C2C(O)CC2(C)C1CCC2(O)C(=O)COC(=O)CCCCCO (stereo unspecified)	logP	2.79
COc1cc(S(C)=O)ccc1-c1nc2cnncc2[nH]1 (stereo unspecified)	logP	0.39
O=C(O)CNC(=O)c1ccccc1	logP	0.31
CC1CCCC(C)N1 (stereo unspecified)	logP	1.53
CCCCCCn1cc(C)c(=O)[nH]c1=O	logP	1.93
O=NN(CCCl)C(=O)NC1CCCCC1	logP	2.83
O=[N+]([O-])c1cc(Cl)c(Cl)cc1Cl	logP	3.48
NC(=O)N/N=C/c1ccc([N+](=O)[O-])o1	logP	0.23
O=C(O)COc1ccc(S(=O)(=O)F)cc1	logP	1.82
OCCCl	logP	0.03
O=C1CCC(=O)N1c1ccccc1	logP	0.06
CCCC(=O)OCC(O)CO (stereo unspecified)	logP	-0.17
Cl[C@@H]1CCCC[C@H]1Cl	logP	3.21
CCOC(=O)C=Cc1ccc(O)c(O)c1	logP	2.56
CCOC(=O)c1ccc(N)cc1	logP	1.86
CCOc1ccc2nccnc2c1	logP	2.22
Brc1cccc(Br)c1	logP	3.75
Cc1cc(NN)ncn1	logP	0.62
Cc1cccc(Nc2ccccc2C(=O)O)c1C	logP	5.12
CCCOc1c(OC)cc(CCN)cc1OC	logP	1.7
COc1cccc(S(C)(=O)=O)c1	logP	0.76
OCCCO	logP	-1.04
O=NN(CCCl)C(=O)NC1CCCC1	logP	2.2
CCNc1nc(NCC)nc(SC(F)F)n1	logP	3.28
CC(=O)CCCc1ccccc1	logP	2.42
Oc1cc(Cl)cc(Cl)c1	logP	3.62
CNCC(CC(C)C)c1ccccc1 (stereo unspecified)	logP	3.76
NC(=O)c1ccccc1NC(=O)C(Cl)Cl	logP	1.68
NC(=S)NN=Cc1ccccc1	logP	1.86
c1ccc(-c2ccncc2)nc1	logP	1.58
CN(C)C(N(C)C)=S(I)c1cccc(Br)c1 (stereo unspecified)	logP	0.01
Cc1cccc(Cl)c1Nc1ccccc1CC(=O)O	logP	4.37
CC(=O)Nc1ccc(O)c(C(C)(C)C)c1	logP	2.36
CC1(C)C(C(=O)OC(C#N)c2cccc(Oc3ccccc3)c2)C1(C)C (stereo unspecified)	logP	5.7
CC(=O)Nc1cccc2nccnc12	logP	1.06
CCNC(=O)c1ccccc1	logP	1.28
O=C1OCc2ccccc21	logP	0.8
CCC(=O)C(CC(C)N(C)C)(c1ccccc1)c1ccccc1 (stereo unspecified)	logP	3.93
CCCCCCC1(c2ccncc2)CCC(=O)NC1=O (stereo unspecified)	logP	2.94
Cc1ccc(C)o1	logP	2.24
Nc1ncnc2ncn(C(c3ccccc3)c3ccccc3)c12	logP	3.19
ClC(Cl)=C(Cl)C(Cl)=C(Cl)Cl	logP	4.78
